Molecular target: T1, cynomolgus monkey BCMA (cynomolgus monkey, UniProt A0A2K5UD97 1-53)
T1 construct: Soluble analyte in SPR; construct not described; also called cyBCMA; Cyno BCMA
T1 sequence (A0A2K5UD97 entry or part of it): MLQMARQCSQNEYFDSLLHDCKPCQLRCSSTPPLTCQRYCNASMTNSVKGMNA
Assay: SPR, IgG immobilised, 37 C

binder	koff [s⁻¹]
L3.PY/H3.TAQ (antibody, V domains shown, IgG) VH: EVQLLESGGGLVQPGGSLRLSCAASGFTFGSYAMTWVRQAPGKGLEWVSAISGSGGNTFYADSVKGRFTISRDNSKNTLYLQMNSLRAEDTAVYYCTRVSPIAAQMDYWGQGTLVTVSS VL: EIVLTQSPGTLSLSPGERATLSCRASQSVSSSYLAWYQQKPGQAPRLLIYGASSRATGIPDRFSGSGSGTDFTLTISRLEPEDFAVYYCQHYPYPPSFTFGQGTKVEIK	0.00437
L3.PY/H2.HA (antibody, V domains shown, IgG) VH: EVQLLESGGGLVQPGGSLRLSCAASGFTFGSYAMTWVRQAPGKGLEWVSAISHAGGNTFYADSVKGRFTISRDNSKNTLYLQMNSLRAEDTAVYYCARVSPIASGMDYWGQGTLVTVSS VL: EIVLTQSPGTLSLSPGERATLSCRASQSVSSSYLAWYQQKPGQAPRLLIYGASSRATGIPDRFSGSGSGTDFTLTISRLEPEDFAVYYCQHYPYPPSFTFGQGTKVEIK	0.00755
L3.PY/L1.FF/P6E01 (antibody, V domains shown, IgG) VH: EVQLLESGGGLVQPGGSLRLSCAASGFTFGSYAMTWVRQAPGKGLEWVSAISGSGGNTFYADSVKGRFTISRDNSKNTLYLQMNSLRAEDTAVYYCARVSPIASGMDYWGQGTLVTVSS VL: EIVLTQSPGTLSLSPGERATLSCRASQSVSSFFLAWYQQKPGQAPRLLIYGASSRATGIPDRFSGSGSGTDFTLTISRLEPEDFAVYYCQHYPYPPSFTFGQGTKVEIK	0.00591
L3.PY/L1.AH/P6E01 (antibody, V domains shown, IgG) VH: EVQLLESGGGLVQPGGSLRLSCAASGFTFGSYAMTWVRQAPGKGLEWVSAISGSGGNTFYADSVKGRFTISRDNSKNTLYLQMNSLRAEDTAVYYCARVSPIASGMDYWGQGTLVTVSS VL: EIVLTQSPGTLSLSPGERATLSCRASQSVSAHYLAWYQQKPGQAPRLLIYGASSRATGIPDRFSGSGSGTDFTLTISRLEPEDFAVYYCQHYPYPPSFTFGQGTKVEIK	0.00572
L3.PY/H2.DY (antibody, V domains shown, IgG) VH: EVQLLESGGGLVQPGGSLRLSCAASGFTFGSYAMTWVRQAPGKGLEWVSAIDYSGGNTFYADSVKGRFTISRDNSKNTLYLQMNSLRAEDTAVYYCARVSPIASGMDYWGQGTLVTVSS VL: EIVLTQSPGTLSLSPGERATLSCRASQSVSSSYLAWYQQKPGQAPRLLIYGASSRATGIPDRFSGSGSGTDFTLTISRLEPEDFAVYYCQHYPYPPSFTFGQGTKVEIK	0.00618
L3.PY/L1.PS/H2.LT (antibody, V domains shown, IgG) VH: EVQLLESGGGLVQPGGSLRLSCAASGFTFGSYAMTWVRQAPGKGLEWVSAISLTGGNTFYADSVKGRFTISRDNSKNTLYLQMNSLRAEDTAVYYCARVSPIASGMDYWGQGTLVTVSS VL: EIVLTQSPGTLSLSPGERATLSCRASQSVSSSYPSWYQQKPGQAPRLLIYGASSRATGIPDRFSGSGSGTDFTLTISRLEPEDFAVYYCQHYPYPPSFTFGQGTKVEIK	0.00411
L3.PY/L1.PS/H2.YQ (antibody, V domains shown, IgG) VH: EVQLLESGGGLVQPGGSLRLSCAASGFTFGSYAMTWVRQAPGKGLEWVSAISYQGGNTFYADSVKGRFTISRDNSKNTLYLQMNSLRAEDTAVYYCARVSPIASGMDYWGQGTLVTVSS VL: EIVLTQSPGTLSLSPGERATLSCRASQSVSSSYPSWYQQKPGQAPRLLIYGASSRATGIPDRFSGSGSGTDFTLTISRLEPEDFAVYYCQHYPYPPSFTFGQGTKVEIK	0.00374
L3.PY/L1.PS/H2.HA (antibody, V domains shown, IgG) VH: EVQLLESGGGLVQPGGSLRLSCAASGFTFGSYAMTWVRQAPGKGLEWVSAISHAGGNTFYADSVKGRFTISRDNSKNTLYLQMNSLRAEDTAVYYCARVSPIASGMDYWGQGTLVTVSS VL: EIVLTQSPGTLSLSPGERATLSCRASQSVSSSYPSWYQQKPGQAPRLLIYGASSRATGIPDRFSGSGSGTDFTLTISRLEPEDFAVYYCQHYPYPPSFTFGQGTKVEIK	0.00269
L3.PY/L1.PS/H3.TAQ (antibody, V domains shown, IgG) VH: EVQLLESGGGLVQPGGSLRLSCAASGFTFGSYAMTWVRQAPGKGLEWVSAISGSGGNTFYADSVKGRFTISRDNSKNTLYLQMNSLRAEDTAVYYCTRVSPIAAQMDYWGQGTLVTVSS VL: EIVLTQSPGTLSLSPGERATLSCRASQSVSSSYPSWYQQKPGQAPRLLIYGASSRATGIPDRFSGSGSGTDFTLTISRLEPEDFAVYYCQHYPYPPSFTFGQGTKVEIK	0.00552
L3.PY/L1.PH/P6E01 (antibody, V domains shown, IgG) VH: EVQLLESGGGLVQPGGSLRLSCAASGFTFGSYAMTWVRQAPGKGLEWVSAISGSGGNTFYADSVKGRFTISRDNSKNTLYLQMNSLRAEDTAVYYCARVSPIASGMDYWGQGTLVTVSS VL: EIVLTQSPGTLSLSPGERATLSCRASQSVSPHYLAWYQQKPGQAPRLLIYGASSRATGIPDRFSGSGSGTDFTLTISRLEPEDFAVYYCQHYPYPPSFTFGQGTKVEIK	0.00789

Every entry's value here was drawn from patent US20160297884A1.
